# Assay System: Serine/threonine-protein kinase Nek6 (Homo sapiens) (UniProt Q9HC98);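 also: values are mean inhibition of NEK6 from the GSK PKIS screen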
# Sequence (Q9HC98 whole entry): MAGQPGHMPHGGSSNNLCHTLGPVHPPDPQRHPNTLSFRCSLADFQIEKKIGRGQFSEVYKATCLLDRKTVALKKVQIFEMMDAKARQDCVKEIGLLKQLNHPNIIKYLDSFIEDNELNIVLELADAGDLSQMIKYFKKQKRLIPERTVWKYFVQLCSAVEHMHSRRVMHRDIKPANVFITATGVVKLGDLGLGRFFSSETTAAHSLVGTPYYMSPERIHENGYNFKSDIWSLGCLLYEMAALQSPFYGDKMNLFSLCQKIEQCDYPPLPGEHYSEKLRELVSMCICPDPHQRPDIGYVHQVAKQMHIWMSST
# Condition Context: at 1 µM
Recorded inhibition by entry
Just the number please, in %, no unit attached.

>>> observed("CN(C)CCOc1ccc(-c2cc(-c3ccc4c(c3)CCC4=NO)c(-c3ccncc3)o2)cc1")
-0.66
>>> observed("O=C(Nc1ccc(Oc2ccc3[nH]c(NC(=O)c4ccccc4)nc3c2)cc1)Nc1cc(C(F)(F)F)ccc1F")
1.7
>>> observed("O=C1NC(=O)C(c2cccc(Cl)c2)=C1Nc1ccc(Cl)c(C(=O)O)c1")
5.19
>>> observed("NC(=O)Cc1ccccc1Oc1nccc(-c2c(-c3ccc(F)cc3)ncn2C2CCNCC2)n1")
1.26
>>> observed("Fc1ccc(-c2nc3n(c2-c2ccncc2)CCS3)cc1")
0.72
>>> observed("O=C(Nc1n[nH]c2cc(-c3ccccc3)ccc12)C1CC1")
-0.52
>>> observed("O=C(Nc1n[nH]c2nc(-c3ccc(O)cc3)c(Br)cc12)C1CC1")
15.2
>>> observed("Clc1ccc(CNc2nccc(-c3cnn4ncccc34)n2)cc1")
-1.91
>>> observed("COc1ccc(-c2ccc3c(NC(=O)C4CC4)n[nH]c3n2)cc1")
3.26
>>> observed("CCc1nccc2c1nc(-c1nonc1N)n2CC")
0.82

Please turn your attention to the following entry.
Query: Sample `CN(C)CCCNc1nccc(-c2c(-c3ccc(F)cc3)nn3cc(C(F)(F)F)ccc23)n1` — what was its inhibition?
Reply: -1.46

====

# Assay System: MAP kinase-interacting serine/threonine-protein kinase 1 (Homo sapiens);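 also: each value is an averaged percent inhibition of MKNK1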
# Condition Context: at 1 µM
Recorded inhibition by entry
Just the number please, in %, no unit attached.

>>> observed("COc1ccc2cc(-c3c(-c4ccncc4)nc(-c4ccc([S+](C)[O-])cc4C)n3C)ccc2c1 (configuration not stated)")
10

Please turn your attention to the following entry.
Query: Sample `C[C@@H](Oc1cc(-n2cnc3ccc(OCC4CCN(C)CC4)cc32)sc1C(N)=O)c1ccccc1Cl` — what was its inhibition?
Reply: 5.78

====

Recorded inhibition by entry
# Assay System: Serine/threonine-protein kinase BRSK1 (Homo sapiens)
# Condition Context: at 0.1 µM
# Description: GSK_PKIS: BRSK1 mean inhibition at 0.1 uM [Nanosyn]
Just the number please, in %, no unit attached.

// known answers, use as guide
>>> observed("Fc1ccc(-c2ncn(C3CCNCC3)c2-c2ccnc(Oc3ccc(Oc4ccccc4)cc3)n2)cc1")
3.46
>>> observed("Cc1ccc(C(=O)NC2CCC2)cc1-c1ccc(C(=O)NCC2CC2)cc1")
1.77
>>> observed("NC(=O)c1ccc(Oc2nccc(-c3c(-c4ccc(F)cc4)ncn3C3CCNCC3)n2)cc1")
2.39
>>> observed("NC(=O)c1cc(-c2ccncc2)cc(-c2ccccc2)c1N")
2.46
>>> observed("COc1cc(C)c(N(C)C(=O)CN(C)C)cc1Nc1nc(Nc2cccc(F)c2C(N)=O)c2cc[nH]c2n1")
0.88
>>> observed("NS(=O)(=O)c1ccc(Nc2cc(-c3ccc(O)c(F)c3)n[nH]2)cc1")
0.57

Query: Notebook entry, Serine/threonine-protein kinase BRSK1 (Homo sapiens) assay: inhibition of `COc1ccc2ncn(-c3cc(O[C@H](C)c4ccccc4Cl)c(C(N)=O)s3)c2c1` = ?
Reply: 2.58

Query: Notebook entry, Serine/threonine-protein kinase BRSK1 (Homo sapiens) assay: inhibition of COc1ccc2cc(-c3c(-c4ccncc4)nc(-c4ccc([S+](C)[O-])cc4C)n3C)ccc2c1 (stereo not given) = ?
Reply: -0.02

Query: Notebook entry, Serine/threonine-protein kinase BRSK1 (Homo sapiens) assay: inhibition of `COc1ccc(-c2ccc3c(NC(=O)C4CC4)n[nH]c3n2)cc1` = ?
Reply: 0.19

Query: Notebook entry, Serine/threonine-protein kinase BRSK1 (Homo sapiens) assay: inhibition of `c1ccc(Oc2ccc(Nc3ncc(-c4ccccc4)o3)cc2)cc1` = ?
Reply: -0.66

====

# Tested on: Platelet-derived growth factor receptor alpha (Homo sapiens), P16234 [D842V]
# Sequence (P16234 whole entry D842V): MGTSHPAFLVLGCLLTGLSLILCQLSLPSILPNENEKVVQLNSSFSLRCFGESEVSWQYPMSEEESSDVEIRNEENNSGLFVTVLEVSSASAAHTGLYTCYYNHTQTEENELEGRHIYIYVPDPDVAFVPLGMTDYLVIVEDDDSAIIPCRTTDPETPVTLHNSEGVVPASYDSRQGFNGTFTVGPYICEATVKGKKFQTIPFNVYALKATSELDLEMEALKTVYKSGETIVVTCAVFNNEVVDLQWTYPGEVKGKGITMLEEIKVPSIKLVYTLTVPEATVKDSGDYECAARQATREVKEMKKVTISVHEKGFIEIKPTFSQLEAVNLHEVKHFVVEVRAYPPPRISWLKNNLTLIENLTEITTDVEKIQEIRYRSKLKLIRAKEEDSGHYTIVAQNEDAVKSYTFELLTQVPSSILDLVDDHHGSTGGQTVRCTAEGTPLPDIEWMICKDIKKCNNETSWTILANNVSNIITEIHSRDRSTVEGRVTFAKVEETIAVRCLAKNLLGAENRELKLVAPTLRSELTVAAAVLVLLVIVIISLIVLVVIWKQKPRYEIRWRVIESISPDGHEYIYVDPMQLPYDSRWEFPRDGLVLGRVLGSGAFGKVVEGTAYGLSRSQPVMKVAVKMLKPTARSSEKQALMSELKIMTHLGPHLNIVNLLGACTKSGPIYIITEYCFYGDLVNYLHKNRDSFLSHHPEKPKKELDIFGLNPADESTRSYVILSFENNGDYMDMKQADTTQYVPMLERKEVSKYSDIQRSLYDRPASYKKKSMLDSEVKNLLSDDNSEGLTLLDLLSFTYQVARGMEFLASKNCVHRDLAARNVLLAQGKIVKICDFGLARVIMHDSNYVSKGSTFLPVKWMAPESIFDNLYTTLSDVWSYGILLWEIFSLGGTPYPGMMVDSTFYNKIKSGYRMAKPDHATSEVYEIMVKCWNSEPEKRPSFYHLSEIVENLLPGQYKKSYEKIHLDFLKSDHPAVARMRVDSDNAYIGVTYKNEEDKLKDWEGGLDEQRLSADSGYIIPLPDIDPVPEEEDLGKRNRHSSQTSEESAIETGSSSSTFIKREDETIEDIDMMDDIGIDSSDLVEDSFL
# Condition Context: at 1 µM
Recorded inhibition by entry
Just the number please, in %, no unit attached.

// known answers, use as guide
>>> observed("COc1ccc2cc(-c3c(-c4ccncc4)nc(-c4ccc([S+](C)[O-])cc4C)n3C)ccc2c1 (stereo unspecified)")
2.27
>>> observed("COc1ccc2ncn(-c3cc(O[C@H](C)c4ccccc4Cl)c(C(N)=O)s3)c2c1")
11.8
>>> observed("COc1cc(Nc2ncc3c(C)nc(-c4cccc(C(F)(F)F)c4)n3n2)cc(OC)c1OC")
13.1
>>> observed("NS(=O)(=O)c1ccc(N/N=C2\\C(=O)Nc3ccc(C(=O)NCCCn4ccnc4)cc32)cc1")
57.8
>>> observed("O=C1Nc2ccccc2/C1=C/Nc1ccc(-n2cncn2)cc1")
24.2

Query: Sample `NS(=O)(=O)c1ccc(N/N=C2\C(=O)Nc3ccc(-c4cnco4)cc32)cc1` — what was its inhibition?
Reply: 40.8

Query: Sample `C/C(Nc1ccc(S(N)(=O)=O)cc1)=C1/C(=O)Nc2ccccc21` — what was its inhibition?
Reply: 33.6

====

# Tested on: Leucine-rich repeat serine/threonine-protein kinase 2 (Homo sapiens), Q5S007 [G2019S]
# Sequence (Q5S007 whole entry G2019S): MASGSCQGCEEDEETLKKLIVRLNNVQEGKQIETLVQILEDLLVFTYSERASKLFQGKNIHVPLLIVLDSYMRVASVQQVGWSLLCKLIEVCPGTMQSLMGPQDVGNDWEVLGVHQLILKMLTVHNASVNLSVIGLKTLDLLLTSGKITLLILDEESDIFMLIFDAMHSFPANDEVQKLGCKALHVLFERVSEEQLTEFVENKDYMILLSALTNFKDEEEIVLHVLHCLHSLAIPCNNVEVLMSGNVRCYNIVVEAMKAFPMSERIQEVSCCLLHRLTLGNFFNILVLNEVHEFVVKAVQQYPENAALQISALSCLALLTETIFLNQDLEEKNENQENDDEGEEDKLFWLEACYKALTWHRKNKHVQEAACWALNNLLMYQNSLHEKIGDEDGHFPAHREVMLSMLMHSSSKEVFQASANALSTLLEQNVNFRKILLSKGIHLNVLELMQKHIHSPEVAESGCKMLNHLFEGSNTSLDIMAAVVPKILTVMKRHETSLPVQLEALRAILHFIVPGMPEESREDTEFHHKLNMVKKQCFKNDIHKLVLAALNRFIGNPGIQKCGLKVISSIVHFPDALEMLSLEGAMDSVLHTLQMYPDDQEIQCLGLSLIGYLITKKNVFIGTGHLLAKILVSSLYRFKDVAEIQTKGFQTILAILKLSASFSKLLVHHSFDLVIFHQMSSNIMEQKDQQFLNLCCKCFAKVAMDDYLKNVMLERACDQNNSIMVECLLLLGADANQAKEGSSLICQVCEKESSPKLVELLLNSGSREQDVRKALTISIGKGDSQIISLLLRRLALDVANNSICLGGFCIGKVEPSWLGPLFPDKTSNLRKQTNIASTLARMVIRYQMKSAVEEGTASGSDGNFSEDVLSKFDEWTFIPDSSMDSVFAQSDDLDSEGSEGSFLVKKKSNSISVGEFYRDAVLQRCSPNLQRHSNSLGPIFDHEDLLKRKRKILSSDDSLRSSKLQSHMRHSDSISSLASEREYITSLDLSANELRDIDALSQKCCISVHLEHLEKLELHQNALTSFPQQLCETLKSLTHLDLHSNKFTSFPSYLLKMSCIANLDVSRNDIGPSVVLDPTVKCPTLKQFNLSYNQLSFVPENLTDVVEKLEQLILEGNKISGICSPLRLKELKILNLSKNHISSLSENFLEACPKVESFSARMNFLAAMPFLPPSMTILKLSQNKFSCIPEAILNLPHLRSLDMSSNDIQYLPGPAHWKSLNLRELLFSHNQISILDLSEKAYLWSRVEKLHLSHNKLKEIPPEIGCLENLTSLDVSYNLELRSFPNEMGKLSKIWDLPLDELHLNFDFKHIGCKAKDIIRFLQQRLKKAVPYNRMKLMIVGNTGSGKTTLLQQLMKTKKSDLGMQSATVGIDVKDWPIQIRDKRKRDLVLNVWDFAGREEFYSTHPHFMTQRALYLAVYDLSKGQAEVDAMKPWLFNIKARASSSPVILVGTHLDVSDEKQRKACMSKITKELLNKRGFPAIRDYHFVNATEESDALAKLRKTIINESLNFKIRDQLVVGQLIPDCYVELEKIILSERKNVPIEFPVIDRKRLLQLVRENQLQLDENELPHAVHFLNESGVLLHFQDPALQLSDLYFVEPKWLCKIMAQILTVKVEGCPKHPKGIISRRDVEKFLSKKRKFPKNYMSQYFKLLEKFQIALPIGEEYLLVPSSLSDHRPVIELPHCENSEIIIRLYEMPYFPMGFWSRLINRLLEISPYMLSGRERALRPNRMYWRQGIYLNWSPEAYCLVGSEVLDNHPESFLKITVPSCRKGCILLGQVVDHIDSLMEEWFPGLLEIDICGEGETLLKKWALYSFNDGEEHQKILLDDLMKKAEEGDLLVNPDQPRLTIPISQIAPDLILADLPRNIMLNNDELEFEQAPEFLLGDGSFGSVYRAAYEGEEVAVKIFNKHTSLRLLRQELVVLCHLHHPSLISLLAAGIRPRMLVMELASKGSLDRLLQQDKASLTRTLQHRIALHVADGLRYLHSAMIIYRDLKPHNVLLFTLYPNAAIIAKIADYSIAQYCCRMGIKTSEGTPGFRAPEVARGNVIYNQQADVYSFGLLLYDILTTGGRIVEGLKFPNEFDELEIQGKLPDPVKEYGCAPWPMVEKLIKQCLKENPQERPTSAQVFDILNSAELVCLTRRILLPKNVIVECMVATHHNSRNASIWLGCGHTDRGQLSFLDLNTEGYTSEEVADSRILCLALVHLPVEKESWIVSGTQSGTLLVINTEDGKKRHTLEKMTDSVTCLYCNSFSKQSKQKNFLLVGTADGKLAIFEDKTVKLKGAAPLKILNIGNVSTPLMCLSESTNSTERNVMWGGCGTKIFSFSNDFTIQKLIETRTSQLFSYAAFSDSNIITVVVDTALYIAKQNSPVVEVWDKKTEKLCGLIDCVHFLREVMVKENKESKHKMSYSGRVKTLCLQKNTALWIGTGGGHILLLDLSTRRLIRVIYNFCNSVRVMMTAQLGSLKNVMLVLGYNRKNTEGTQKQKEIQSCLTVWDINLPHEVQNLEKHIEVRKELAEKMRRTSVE
# Condition Context: at 0.1 µM
# cutoff 5% applies to inhibition; >= gives yes, < gives no

>>> assigned_label("O=C1Nc2ccccc2/C1=C/Nc1ccc(-n2cncn2)cc1")
"yes"

Query: Threshold query (inhibition >= 5%) on `COc1cccc(/C=N/Nc2ncnc3c2cnn3-c2cccc(OC)c2)c1`
Reply: no

Query: Threshold query (inhibition >= 5%) on `CCC(=O)Nc1ccc(C)c(-c2ccc(C(=O)NCC3CC3)cc2)c1`
Reply: no

Query: Threshold query (inhibition >= 5%) on `c1ccc(-c2n[nH]cc2-c2ccnc(-c3ccc(OCCN4CCOCC4)cc3)c2)nc1`
Reply: yes

====

# Assay System: cAMP-dependent protein kinase catalytic subunit alpha (Homo sapiens);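 also: mean percent inhibition of PKA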
# Condition Context: at 1 µM
Endpoint: inhibition (%)
Just the number please, in %, no unit attached.

>>> observed("Cc1ccc(C(=O)NC2CCC2)cc1-c1ccc(C(=O)NCC2CC2)cc1")
1.14

Query: Sample `CCN(CC)Cc1ccc(Nc2nccc(-c3cnn4ncccc34)n2)cc1` — what was its inhibition?
Reply: 4.26

Query: Sample `COc1cc(C)c(N(C)C(=O)CN(C)C)cc1Nc1nc(Nc2cccc(F)c2C(N)=O)c2cc[nH]c2n1` — what was its inhibition?
Reply: -3.21

Query: Sample `NCc1ccc(-n2c(-c3nonc3N)nc3cnccc32)cc1` — what was its inhibition?
Reply: 56.1

Query: Sample `Clc1ccc(CNc2nccc(-c3cnn4ncccc34)n2)cc1` — what was its inhibition?
Reply: 1.31

====

# Assay System: Cyclin-dependent kinase 1 (Homo sapiens);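 also: enzyme assay on the CDK1/cyclin B complex, reported as mean percent inhibition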
# Condition Context: at 0.1 µM
Recorded inhibition by entry
Just the number please, in %, no unit attached.

// known answers, use as guide
>>> observed("Clc1ccc(CNc2nccc(-c3cnn4ncccc34)n2)cc1")
7.01
>>> observed("O=C(Nc1n[nH]c2nc(-c3ccc(O)cc3)c(Br)cc12)C1CC1")
24.2

Query: Sample `COc1cccc(-n2cnc3c(N/N=C/c4ccncc4)ncnc32)c1` — what was its inhibition?
Reply: -3.5

Query: Sample `COc1cccc(/C=N/Nc2ncnc3c2cnn3-c2cccc(OC)c2)c1` — what was its inhibition?
Reply: 1.12

Query: Sample `COc1cc(Nc2ncc(-c3ccccc3)o2)cc(OC)c1OC` — what was its inhibition?
Reply: 0.44

====

# Assay System: MAP/microtubule affinity-regulating kinase 4 (Homo sapiens) (UniProt Q96L34);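 also: values are averaged percent inhibition of MARK4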
# Sequence (whole entry): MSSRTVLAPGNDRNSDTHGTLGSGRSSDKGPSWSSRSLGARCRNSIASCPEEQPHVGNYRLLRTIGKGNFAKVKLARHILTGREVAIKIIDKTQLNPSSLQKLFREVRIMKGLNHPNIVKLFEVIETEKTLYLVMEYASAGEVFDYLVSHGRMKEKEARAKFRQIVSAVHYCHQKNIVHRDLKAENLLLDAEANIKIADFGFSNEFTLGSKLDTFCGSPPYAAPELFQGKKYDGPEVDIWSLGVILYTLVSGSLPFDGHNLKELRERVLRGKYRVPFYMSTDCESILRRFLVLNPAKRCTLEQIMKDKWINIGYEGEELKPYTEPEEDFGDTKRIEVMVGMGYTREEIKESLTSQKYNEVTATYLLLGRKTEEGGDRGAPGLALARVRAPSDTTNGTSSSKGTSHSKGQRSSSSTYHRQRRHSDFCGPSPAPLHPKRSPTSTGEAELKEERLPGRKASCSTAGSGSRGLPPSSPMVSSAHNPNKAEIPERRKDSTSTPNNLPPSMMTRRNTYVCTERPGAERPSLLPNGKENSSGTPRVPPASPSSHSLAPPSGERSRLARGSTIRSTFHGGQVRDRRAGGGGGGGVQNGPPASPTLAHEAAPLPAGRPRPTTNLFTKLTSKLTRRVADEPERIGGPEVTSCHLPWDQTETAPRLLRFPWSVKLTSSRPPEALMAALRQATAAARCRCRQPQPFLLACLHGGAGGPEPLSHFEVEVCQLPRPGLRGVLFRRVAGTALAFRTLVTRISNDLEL
# Condition Context: at 0.1 µM
Endpoint: inhibition (%)
Just the number please, in %, no unit attached.

Query: Sample `CN1CCN(CCCNc2nc3ccc(Oc4ccc(NC(=O)Nc5cc(C(F)(F)F)ccc5F)cc4)cc3[nH]2)CC1` — what was its inhibition?
Reply: 1.5

Query: Sample `c1ccc(-c2n[nH]cc2-c2ccnc(-c3ccc(OCCN4CCOCC4)cc3)c2)nc1` — what was its inhibition?
Reply: 4.57

Query: Sample `CCc1nccc2c1nc(-c1nonc1N)n2CC` — what was its inhibition?
Reply: 0.74

Query: Sample `COc1cccc(-n2cnc3c(N/N=C/c4ccncc4)ncnc32)c1` — what was its inhibition?
Reply: 0.84

Query: Sample `Fc1ccc(-c2ncn(C3CCNCC3)c2-c2ccnc(Oc3ccc4c(c3)OCO4)n2)cc1` — what was its inhibition?
Reply: 2.61

Query: Sample `COc1ccc(-c2ccc3c(NC(=O)C4CC4)n[nH]c3n2)cc1` — what was its inhibition?
Reply: 0

Query: Sample `O=C(NCC1CC1)c1ccc(-c2cccc(C(=O)NC3CC3)c2)cc1` — what was its inhibition?
Reply: 0.89

Query: Sample `C[C@@H](Oc1cc(-n2cnc3ccc(OC4CCN(C)CC4)cc32)sc1C(N)=O)c1ccccc1Cl` — what was its inhibition?
Reply: 2.31

Query: Sample `NC(=O)Cc1ccccc1Oc1nccc(-c2c(-c3ccc(F)cc3)ncn2C2CCNCC2)n1` — what was its inhibition?
Reply: 1.54

Query: Sample `O=C(Nc1n[nH]c2nc(-c3ccc(O)cc3)c(Br)cc12)C1CC1` — what was its inhibition?
Reply: 3.64

Query: Sample `COc1cc(Nc2ncc3c(C)nc(-c4cccc(Oc5ccccc5)c4)n3n2)cc(OC)c1OC` — what was its inhibition?
Reply: 1.25

Query: Sample `CCS(=O)(=O)c1ccc(OC)c(Nc2ncc(-c3ccccc3Cl)o2)c1` — what was its inhibition?
Reply: -1.13

Query: Sample `O=C(Nc1ccc(Oc2ccc3[nH]c(NC(=O)c4ccccc4)nc3c2)cc1)Nc1cc(C(F)(F)F)ccc1F` — what was its inhibition?
Reply: 0.56

Query: Sample COc1ccc2cc(-c3c(-c4ccncc4)nc(-c4ccc([S+](C)[O-])cc4C)n3C)ccc2c1 (stereo not drawn) — what was its inhibition?
Reply: -0.17

Query: Sample `COc1cc2ncn(-c3cc(OCc4ccccc4C(F)(F)F)c(C(C)=O)s3)c2cc1OC` — what was its inhibition?
Reply: 3
